test target: KRAS WT (Homo sapiens (Human))
Sequence (P01116-2 other isoform, or with tags, fused parts or gaps): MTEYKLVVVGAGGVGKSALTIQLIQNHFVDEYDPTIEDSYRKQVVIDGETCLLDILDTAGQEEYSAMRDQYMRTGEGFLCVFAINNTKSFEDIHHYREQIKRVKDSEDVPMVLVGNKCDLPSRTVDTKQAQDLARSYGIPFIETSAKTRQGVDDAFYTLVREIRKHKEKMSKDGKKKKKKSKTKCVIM
assay protocol: KRAS WT Biochemical Assay, BODIPY-GDP Exchange TR-FRET (Example 502; 0.06 nM KRAS WT, 15 nM GDP, 300 nM SOS1, 120-minute incubation)
assay conditions: read-out: KRas HTRF IC50
reported endpoint: log10 of IC50 (log10 of the value in nM)

>  <compound>
COc1cc2ccccc2c(-c2nc3c4c(nc(OC[C@]56CCN5CC(F)(F)C6)nc4c2F)N2C[C@H]4CC[C@H](N4)[C@H]2[C@H](C)O3)n1 [Compound 89]

>  <log10 of IC50>
3.22

$$$$
>  <compound>
Cc1c(F)c(N)cc(-c2nc3c4c(nc(OC[C@H]5[C@@H](O)CCN5C)nc4c2F)N2C[C@H]4CC[C@H](N4)[C@H]2[C@H](C)O3)c1C(F)(F)F [Compound 162]

>  <log10 of IC50>
1.62

$$$$
>  <compound>
Cc1cc(N)cc(-c2nc3c4c(nc(OC[C@@]56CCCN5CC5(CC5(F)F)C6)nc4c2F)N2C[C@H]4CC[C@H](N4)[C@H]2[C@H](C)O3)c1C(F)(F)F (stereo partly shown) [Compound 68]

>  <log10 of IC50>
-0.95

$$$$
>  <compound>
Cc1c(F)c(N)cc(-c2nc3c4c(nc(OC[C@]5(CN6CC7(COC7)C6)CC5(F)F)nc4c2F)N2C[C@H]4CC[C@H](N4)[C@H]2[C@H](C)O3)c1C(F)(F)F (stereo in doubt) [165 c]

>  <log10 of IC50>
0.34

$$$$
>  <compound>
Cc1c(F)c(N)cc(-c2nc3c4c(nc(OC[C@@]56CCC[C@H]5N(C)CCC6)nc4c2F)N2C[C@H]4CC[C@H](N4)[C@H]2[C@H](C)O3)c1C(F)(F)F (single isomer, unassigned) [126 (isomer 3)]

>  <log10 of IC50>
0.80

$$$$
>  <compound>
Cc1c(F)c(N)cc(-c2nc3c4c(nc(OC[C@@H]5CC[C@H]6COCCN65)nc4c2F)N2C[C@H]4CC[C@H](N4)[C@H]2[C@H](C)O3)c1C(F)(F)F [Compound 31]

>  <log10 of IC50>
0.85

$$$$
>  <compound>
Cc1c(F)c(N)cc(-c2nc3c4c(nc(OC[C@@H]5CCC6C=C(F)CCN65)nc4c2F)N2C[C@H]4CC[C@H](N4)[C@H]2[C@H](C)O3)c1C(F)(F)F (stereo partly shown) [Compound 120]

>  <log10 of IC50>
1.65

$$$$
>  <compound>
Cc1c(F)c(N)cc(-c2nc3c4c(nc(OC[C@@H]5C[C@@H]6C[N@@]5CCO6)nc4c2F)N2C[C@H]4CC[C@H](N4)[C@H]2[C@H](C)O3)c1C(F)(F)F (single isomer, unassigned) [151 (isomer 1)]

>  <log10 of IC50>
2.60

$$$$
>  <compound>
C[C@@H]1Oc2nc(-c3cc(N)cc(C(F)(F)F)c3C(F)(F)F)c(F)c3nc(OC[C@@]45CCCN4C[C@H](F)C5)nc(c23)N2C[C@H]3CC[C@H](N3)[C@@H]12 [Compound 115]

>  <log10 of IC50>
1.53

$$$$
>  <compound>
C[C@@H]1Oc2nc(-c3cc(N)c(F)c(F)c3CC(F)F)c(F)c3cc(OC[C@@H]4CC[C@H]5COCCN54)nc(c23)N2C[C@H]3CC[C@H](N3)[C@@H]12 [Compound 158]

>  <log10 of IC50>
2.08

$$$$
>  <compound>
Cc1c(F)c(N)cc(-c2nc3c4c(nc(OC[C@H]5CC[C@@H]6CN(C)C(=O)CN56)nc4c2F)N2C[C@H]4CC[C@H](N4)[C@H]2[C@H](C)O3)c1C(F)(F)F (single isomer, unassigned) [131 (isomer 1)]

>  <log10 of IC50>
3.40

$$$$
>  <compound>
Cc1c(F)c(N)cc(-c2nc3c4c(nc(OCC56CCCN5CCN(C)C6=O)nc4c2F)N2C[C@H]4CC[C@H](N4)[C@H]2[C@H](C)O3)c1C(F)(F)F (single isomer, unassigned) [137 (isomer 2)]

>  <log10 of IC50>
2.66

$$$$
>  <compound>
Cc1c(F)c(N)cc(-c2nc3c4c(nc(OCC5(CN6CCO[C@H](C)C6)CC5)nc4c2F)N2C[C@H]4CC[C@H](N4)[C@H]2[C@H](C)O3)c1C(F)(F)F [Compound 168]

>  <log10 of IC50>
0.23

$$$$
